- measurementTarget: human TLR7 (Homo sapiens)
- Construct: host or cells: HEK-Blue cells
- Sequence (Q9NYK1 27-1049): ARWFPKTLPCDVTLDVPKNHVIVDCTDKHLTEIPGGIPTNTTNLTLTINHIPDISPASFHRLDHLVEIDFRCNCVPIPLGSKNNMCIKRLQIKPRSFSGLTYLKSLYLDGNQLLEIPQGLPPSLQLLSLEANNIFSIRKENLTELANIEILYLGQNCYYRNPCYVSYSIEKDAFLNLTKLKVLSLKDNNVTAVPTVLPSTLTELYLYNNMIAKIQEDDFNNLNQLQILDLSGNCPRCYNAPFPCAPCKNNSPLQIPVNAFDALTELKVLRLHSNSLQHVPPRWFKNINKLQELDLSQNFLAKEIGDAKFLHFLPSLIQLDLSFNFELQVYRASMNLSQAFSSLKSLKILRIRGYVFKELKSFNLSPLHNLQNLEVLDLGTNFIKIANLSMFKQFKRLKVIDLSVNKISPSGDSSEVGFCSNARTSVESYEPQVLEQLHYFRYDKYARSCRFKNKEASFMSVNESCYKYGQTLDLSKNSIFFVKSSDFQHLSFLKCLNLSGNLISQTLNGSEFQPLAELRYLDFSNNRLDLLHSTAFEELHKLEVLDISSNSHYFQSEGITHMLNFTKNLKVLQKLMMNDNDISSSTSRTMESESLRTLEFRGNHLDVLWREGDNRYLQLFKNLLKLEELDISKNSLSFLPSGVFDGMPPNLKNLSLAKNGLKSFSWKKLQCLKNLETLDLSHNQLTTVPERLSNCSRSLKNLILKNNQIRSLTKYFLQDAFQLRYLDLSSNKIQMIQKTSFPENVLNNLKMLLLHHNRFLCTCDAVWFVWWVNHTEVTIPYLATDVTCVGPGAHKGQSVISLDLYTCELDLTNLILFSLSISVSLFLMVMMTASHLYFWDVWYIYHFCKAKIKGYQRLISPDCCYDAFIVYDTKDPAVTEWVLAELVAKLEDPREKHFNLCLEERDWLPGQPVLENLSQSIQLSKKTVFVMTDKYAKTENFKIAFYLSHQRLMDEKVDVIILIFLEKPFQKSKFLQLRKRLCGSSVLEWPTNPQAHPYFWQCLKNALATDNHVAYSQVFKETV
- experimentalDetails: TLR7 inhibition reporter assay (HEK-Blue cells, SEAP reporter, gardiquimod stimulation)
- Type: cell-based
- conditions: HEK-Blue cells overexpressing human TLR7, SEAP reporter, gardiquimod 7.5 μM
Collected IC50 values appear next to each entry.
measurementName: IC50 (nM)

molecule: Cc1cc(-c2[nH]nc(-c3ccc4c(c3)CCN(C(C)C)C4)c2C(C)C)cn2ncnc12 [Example 246]
measurementName: IC50
value: 60.8
//
molecule: Cc1cc(-c2[nH]nc(C(=O)N[C@H]3CC[C@H](NCc4cccnc4)CC3)c2C(C)C)cn2ncnc12 [Example 112]
measurementName: IC50
value: 11.4
//
molecule: COc1cc(-c2[nH]nc(C(=O)NC3CCN(CC4CCOCC4)CC3)c2CC(F)(F)F)cn2ncnc12 [Example 197]
measurementName: IC50
value: 5.35
//
molecule: CCN1CCC(c2ccc(-c3n[nH]c(-c4cc(OC)c5ncnn5c4)c3C(C)C)nc2)CC1 [Example 347]
measurementName: IC50
value: 22.9
//
molecule: Cc1cc(-c2[nH]nc(-c3ccc(N4CCN(CC(C)(C)C)CC4)cc3)c2C(C)C)cn2ncnc12 [Example 408]
measurementName: IC50
value: 47.4
//
molecule: Cc1cc(-c2[nH]nc(C(=O)NCC3CCNCC3)c2C(C)C)cn2ncnc12 [Example 45]
measurementName: IC50
value: 1.84
//
molecule: Cc1cc(-c2[nH]nc(C(=O)N[C@@H]3CCNC3)c2C(C)C)cn2ncnc12 [Example 50]
measurementName: IC50
value: 1.27
//
molecule: Cc1cc(-c2[nH]nc(-c3ccc(C4CN(CC(C)(C)O)C4)cc3)c2C(C)C)cn2ncnc12 [Example 336]
measurementName: IC50
value: 13.5

====

- measurementTarget: human TLR8 (Homo sapiens, UniProt Q9NR97)
- Sequence (Q9NR97 27-1041): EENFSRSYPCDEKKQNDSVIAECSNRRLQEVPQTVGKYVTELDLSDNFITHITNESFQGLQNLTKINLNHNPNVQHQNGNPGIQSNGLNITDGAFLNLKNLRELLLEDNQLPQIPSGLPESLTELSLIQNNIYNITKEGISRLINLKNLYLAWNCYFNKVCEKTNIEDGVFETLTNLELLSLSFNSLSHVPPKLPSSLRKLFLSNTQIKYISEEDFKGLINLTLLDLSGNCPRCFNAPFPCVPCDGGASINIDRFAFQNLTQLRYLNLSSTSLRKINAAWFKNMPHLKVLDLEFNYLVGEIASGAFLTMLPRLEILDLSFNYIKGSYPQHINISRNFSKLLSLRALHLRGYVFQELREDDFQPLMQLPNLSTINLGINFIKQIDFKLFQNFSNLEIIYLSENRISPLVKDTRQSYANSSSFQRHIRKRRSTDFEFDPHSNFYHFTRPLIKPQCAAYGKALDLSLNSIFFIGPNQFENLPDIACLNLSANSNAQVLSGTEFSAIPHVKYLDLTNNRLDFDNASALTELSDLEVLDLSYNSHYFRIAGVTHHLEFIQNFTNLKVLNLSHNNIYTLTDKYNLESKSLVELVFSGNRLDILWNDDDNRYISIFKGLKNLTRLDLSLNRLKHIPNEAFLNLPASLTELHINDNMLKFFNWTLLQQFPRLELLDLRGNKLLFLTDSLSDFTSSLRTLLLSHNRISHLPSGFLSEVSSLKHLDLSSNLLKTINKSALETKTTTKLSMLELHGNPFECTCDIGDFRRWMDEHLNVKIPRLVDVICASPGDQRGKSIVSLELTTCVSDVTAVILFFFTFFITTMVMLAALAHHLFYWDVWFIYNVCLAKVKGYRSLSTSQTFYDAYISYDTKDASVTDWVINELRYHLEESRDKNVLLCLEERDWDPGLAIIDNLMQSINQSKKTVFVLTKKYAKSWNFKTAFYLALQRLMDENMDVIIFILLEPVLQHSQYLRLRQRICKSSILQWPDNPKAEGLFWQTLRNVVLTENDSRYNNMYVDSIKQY
- experimentalDetails: TLR8 inhibition reporter assay (HEK-Blue cells, SEAP reporter, R848 stimulation)
- conditions: HEK-Blue cells overexpressing human TLR8, SEAP reporter, R848 15.9 μM
pIC50: −log10 of the molar value.
Assign t to entries whose pIC50 meets or exceeds 8; assign f to the rest.

smilesRepr: Cc1cc(-c2[nH]nc(C(=O)N(C)CCC#N)c2C(C)C)cn2ncnc12
className: t
--
smilesRepr: Cc1cc(-c2[nH]nc(C(=O)N[C@H]3CC[C@H](NCC4(C)COC4)CC3)c2C(C)C)cn2ncnc12
className: f
--
smilesRepr: COc1cc(-c2[nH]nc(-c3ccc(C4CCN(CCS(C)(=O)=O)CC4)cn3)c2C(C)C)cn2ncnc12
className: f
--
smilesRepr: Cc1cc(-c2[nH]nc(CNC3CCNCC3)c2C(C)C)cn2ncnc12
className: t
--
smilesRepr: COc1ccc(-c2[nH]nc(C(=O)NC3CCN(C(C)C)CC3)c2C(C)C)cc1OC
className: t
--
smilesRepr: CCCN1CCc2nc(-c3n[nH]c(-c4cc(OC)c5ncnn5c4)c3C(C)C)sc2C1
className: f
--
smilesRepr: Cc1cc(-c2[nH]nc(C(=O)NC3CCN(C(C)C)CC3)c2C(C)C)cn(C)c1=O
className: f

====

- measurementTarget: human TLR7 (Homo sapiens, UniProt Q9NYK1)
- experimentalDetails: TLR7 inhibition reporter assay (HEK-Blue cells, SEAP reporter, gardiquimod stimulation)
- conditions: HEK-Blue cells overexpressing human TLR7, SEAP reporter, gardiquimod 7.5 μM
Response field label: string, one of criterion met (IC50 strictly below 1 nM) or criterion not met.

compound: CCCN1CCC(c2cnc(-c3n[nH]c(-c4cc(OC)c5ncnn5c4)c3C(C)C)cn2)CC1 [Example 383]
className: criterion not met
--
compound: Cc1cc(-c2[nH]nc(C(=O)NC3CCN(CC(C)(C)C)CC3)c2C(C)C)cn2ncnc12 [Example 74]
className: criterion met
--
compound: Cc1cc(-c2[nH]nc(-c3ncc4c(n3)CCN(C3COC3)C4)c2C(C)C)cn2ncnc12 [Example 251]
className: criterion not met
--
compound: Cc1cc(-c2[nH]nc(C(=O)N[C@@H]3CCCNC3)c2C(C)C)cn2ncnc12 [Example 52]
className: criterion not met
--
compound: Cc1cc(-c2[nH]nc(C(=O)N[C@H]3CC[C@@H](NC4CCOC(C)(C)C4)CC3)c2C(C)C)cn2ncnc12 (stereo partly shown) [Example 97]
className: criterion not met
--
compound: Cc1cc(-c2[nH]nc(C(=O)N3CCC(N)CC3)c2C(C)C)cn2ncnc12 [Example 55]
className: criterion not met
--
compound: Cc1cc(-c2[nH]nc(-c3ccc(C4CN(C)C4)cc3)c2C(C)C)cn2ncnc12 [Example 324]
className: criterion not met
--
compound: Cc1cc(-c2[nH]nc(C(=O)NC3CCN(CC4CC4)CC3)c2C(C)C)cn2ncnc12 [Example 73]
className: criterion met
--
compound: CCCN1CCC(c2ccc(-c3n[nH]c(-c4cc(OC)c5ncnn5c4)c3C(C)C)nc2)CC1 [Example 349]
className: criterion not met
--
compound: Cc1cc(-c2[nH]nc(-c3nc4c(s3)CNCC4)c2C(C)C)cn2ncnc12 [Example 218]
className: criterion not met
--
compound: Cc1cc(-c2[nH]nc(C(=O)NC3CCN(CC(C)(C)O)CC3)c2C(C)C)cn2ncnc12 [Example 138]
className: criterion met
--
compound: Cc1cc(-c2[nH]nc(C(=O)NC3CCN(CCCC(F)(F)F)CC3)c2C(C)C)cn2ncnc12 [Example 71]
className: criterion not met
--
compound: Cc1cc(-c2[nH]nc(-c3ccc4c(c3)CCNC4)c2C(C)C)cc(C)n1 [Example 278]
className: criterion not met
--
compound: Cc1cc(-c2[nH]nc(C(=O)N(C)C3CCN(C)CC3)c2C(C)C)cn2ncnc12 [Example 6]
className: criterion not met
--
compound: CCNc1ccc2nc(-c3n[nH]c(-c4cc(C)c5ncnn5c4)c3C(C)C)sc2c1 [Example 257]
className: criterion not met

====

- measurementTarget: human TLR9 (Homo sapiens, UniProt Q9NR96)
- Sequence (Q9NR96 26-1032): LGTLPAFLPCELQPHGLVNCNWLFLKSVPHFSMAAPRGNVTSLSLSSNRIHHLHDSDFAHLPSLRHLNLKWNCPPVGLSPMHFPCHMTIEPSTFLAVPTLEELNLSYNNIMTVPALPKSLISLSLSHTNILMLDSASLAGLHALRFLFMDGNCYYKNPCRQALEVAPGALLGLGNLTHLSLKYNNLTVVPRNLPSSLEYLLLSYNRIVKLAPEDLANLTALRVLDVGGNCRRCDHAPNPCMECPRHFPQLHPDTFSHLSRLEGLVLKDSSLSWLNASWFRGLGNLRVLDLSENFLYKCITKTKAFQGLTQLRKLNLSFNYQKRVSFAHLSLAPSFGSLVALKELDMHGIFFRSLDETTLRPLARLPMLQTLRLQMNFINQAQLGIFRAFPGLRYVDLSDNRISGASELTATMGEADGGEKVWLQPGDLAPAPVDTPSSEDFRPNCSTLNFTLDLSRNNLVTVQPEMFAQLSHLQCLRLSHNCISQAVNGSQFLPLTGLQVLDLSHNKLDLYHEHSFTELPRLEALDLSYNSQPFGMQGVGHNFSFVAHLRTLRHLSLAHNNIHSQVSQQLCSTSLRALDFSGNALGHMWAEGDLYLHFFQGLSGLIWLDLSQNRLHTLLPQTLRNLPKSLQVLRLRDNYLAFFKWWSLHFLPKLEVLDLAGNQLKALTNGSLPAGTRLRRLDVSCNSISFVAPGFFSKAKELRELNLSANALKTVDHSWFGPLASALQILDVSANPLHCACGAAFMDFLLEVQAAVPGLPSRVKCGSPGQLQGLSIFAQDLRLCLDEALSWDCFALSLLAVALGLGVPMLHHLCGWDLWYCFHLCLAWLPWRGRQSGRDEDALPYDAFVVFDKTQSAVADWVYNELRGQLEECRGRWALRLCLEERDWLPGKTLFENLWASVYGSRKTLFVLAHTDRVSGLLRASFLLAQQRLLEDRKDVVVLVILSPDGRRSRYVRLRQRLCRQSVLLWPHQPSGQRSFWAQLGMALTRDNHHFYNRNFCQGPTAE
- experimentalDetails: TLR9 inhibition reporter assay (HEK-Blue cells, SEAP reporter, ODN2006 stimulation)
- conditions: HEK-Blue cells overexpressing human TLR9, SEAP reporter, ODN2006 5 nM
pIC50: −log10 of the molar value.
Assign true (1) to entries whose pIC50 meets or exceeds 5; assign false (0) to the rest.

compound: Cc1cc(-c2[nH]nc(C(=O)NC3CCN(C(C)CS(C)(=O)=O)CC3)c2C(C)C)cn2ncnc12 (centres unmarked)
className: false (0)
//
compound: Cc1cc(-c2[nH]nc(C(=O)N3CCC(N(C)C)CC3)c2C(C)C)cn2ncnc12
className: true (1)
//
compound: Cc1cc(-c2[nH]nc(C(=O)N3CCCN(C)CC3)c2C(C)C)cn2ncnc12
className: true (1)
//
compound: COc1cc(-c2[nH]nc(-c3ccc(C4CN(C)C4)cc3)c2C(C)C)cn2ncnc12
className: false (0)
//
compound: COCC(C)N[C@H]1CC[C@H](NC(=O)c2n[nH]c(-c3cc(C)c4ncnn4c3)c2C(C)C)CC1 (some centres unmarked)
className: false (0)
//
compound: Cc1cc(-c2[nH]nc(-c3cncc(N(C)C)c3)c2C(C)C)cn2ncnc12
className: true (1)
